Experiment: HUVEC growth inhibition – cell-based, human, primary screen (AID 575);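 further: 100% = median of untreated cell wells with 0.1% DMSO on each plate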
Settings: HUVEC proliferation, CellTiter-Glo luminescence, 72 h; at 10 µM
Active and inactive are the calls of the source.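 How the source made its calls: active means viability at or below 30% in both replicate assays; inconclusive means viability at or below 30% in just one of the two assays; inactive means the rest.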
I would appreciate it if you answered using one of these outcomes: active, inactive

Answered cases to consult:
- molecule: "CCN1CCN(C(=O)c2cc3c(=O)n(C)c4ccccc4c3n2C)CC1"
  group: "inactive"
- molecule: "CN1CCN(C(=O)C2(NC(=O)Nc3cccc(F)c3)CCCCC2)CC1"
  group: "inactive"
- molecule: "Fc1c(F)c(F)c(CSc2nc3ccccc3[nH]2)c(F)c1F"
  group: "inactive"
- molecule: "COc1cccc(-n2nnc3c(=O)n(Cc4cccc(F)c4)cnc32)c1"
  group: "inactive"
- molecule: "CCOC(=O)CNC(=O)CSc1nnnn1-c1cc(C)ccc1C"
  group: "inactive"

Would you mind telling me which call this test gave O=c1oc2ccccc2c(N2CCCCC2)c1CN1CCCCC1 ?
inactive

Check the results log: what was the call for CSCCC(NC(=O)CCN1C(=O)c2ccccc2C1=O)C(=O)O (centres undefined) ?
inactive

// return assay outcome for COc1ccccc1-n1nnnc1SCc1cc2c(cc1Br)OCO2
inactive

For this molecule, state the assay outcome: CCOC(=O)c1sc(NC(=O)COC(=O)Cn2cnc3ccccc32)c(C(=O)OCC)c1C
inactive

Test call, this molecule: CC(C)CC1NC(=O)N(CC(=O)N2CCN(S(=O)(=O)c3ccc(Cl)cc3)CC2)C1=O (centres undefined)
inactive

Kindly provide the recorded test outcome for the following molecule: Cn1c(=O)c2c(ncn2CC(O)CO)n(C)c1=O (centres undefined)
inactive

What was the test verdict on Nc1nc(SCc2ccc(Cl)cc2Cl)n[nH]1 ?
inactive

Answer briefly: the call reported for CCO/C([O-])=N/c1c[n+](N2CCOCC2)no1 in this assay.
inactive

Recorded test outcome, item COc1cc(NC(=O)c2ccco2)c(OC)cc1NC(=O)CCC(=O)Nc1cc(C)cc(C)c1
inactive

What classification did COCCNC(=O)CN1CCC(NC(=O)Nc2ccc(C(F)(F)F)cc2)CC1 end up with in this test?
inactive

Please state the recorded outcome for this molecule: NS(=O)(=O)c1cc2c(cc1Cl)NC=NS2(=O)=O
inactive

Record lookup: outcome of this test for CCN(CC)CCNC(=O)c1ccc(N2CCCCC2)c(NS(=O)(=O)c2ccc(C)cc2)c1 ?
active

====

Assay: 384-well plate pilot, post-Golgi transport modulator project, inhibition of yeast transport mutant growth (AID 636)
Conditions: absorbance 615 nm, about 18 h
Active and inactive are the calls of the source. Cut-off read from the data, not from the text of the source: active = inhibition above about 31%; inactive = the rest.
Outcomes you can answer with include only these: T for active, F for inactive

- compound: "CC(C)(C)c1ccc(-c2nnc(SCCC#N)n2C2CCCC2)cc1"
  group: "F"
- compound: "CCOC(=O)c1ccc(NC(=O)N2CCN(CCc3ccccc3)CC2)cc1"
  group: "F"
- compound: "COc1ccc(OC)c(S(=O)(=O)NCCO)c1"
  group: "F"
- compound: "CCCCn1c(SCc2ccc(Cl)cc2)nc2c1c(=O)[nH]c(=O)n2C"
  group: "F"
- compound: "CN(C)c1cccc(N=C2C=C(N3CCOCC3)CC(C)(C)C2)c1"
  group: "F"

How did this test come out for CCOC(=O)C1=C(CSc2nc(C)cc(C)c2C#N)OC(N)=C(C#N)C1c1cccs1 (stereo unspecified) ?
F

Hello, I am checking results. What call was entered for Nn1cc(-c2ccccc2)nc1SCC(=O)N1CCN(S(=O)(=O)c2ccccc2)CC1 ?
F

Tell me the recorded outcome of this test for CCOC(=O)c1c(C(F)(F)C(F)(F)C(F)(F)C(F)(F)F)n[nH]c1C .
F

Could you please tell me the result logged for COc1ccc(CNS(=O)(=O)c2ccc3oc(C(=O)O)c(C)c3c2)cc1 in this assay?
F

// outcome(item) with item = CCN(CC)CCNC(=O)c1ccc(N2CCCCC2)c(NS(=O)(=O)c2ccc(C)cc2)c1
F

Any idea what this test logged for COc1ccc(C/C(O)=C(\C#N)c2nc3ccccc3s2)cc1 ?
F

What was the test verdict on O=C(Nc1cccc2ncccc12)c1ccc2c(c1)OCCO2 ?
F

====

Reported viability by item:
Experiment: SK-BR-3 cell growth inhibitors, pilot screen, 24 h, human (AID 572);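 further: compound exposure lasted between 18 and 24 h rather than exactly 24 h; 100% = carrier-treated control wells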
Conditions: SK-BR-3 viability, CellTiter-Glo luminescence, at 10 µM, hits give low values
Supply the numeric figure in %, leaving out any unit text.

- compound: "O=C(Cn1c(=O)n(CC2CCCO2)c(=O)c2ccccc21)c1ccccc1 (stereo not drawn)"
  viability [%]: 121
- compound: "CCOC(=O)Cc1csc(/C(=N/O)C(N)=O)n1"
  viability [%]: 94

Please examine the following record next.
So what does the record say about viability for COc1cc(/C=C/C(=O)CC(=O)/C=C/c2ccc(O)c(OC)c2)ccc1O ?
116

====

Assay: reversal of MRP1-mediated doxorubicin resistance, pilot screen, H69AR cells, doxorubicin co-treatment (AID 601)
Conditions: H69AR cells + 2 uM doxorubicin, CellTiter-Glo, 72 h; at 10 µM; hits give high values
recorded-endpoint: differential viability (reversal) (%)
Could you give me the number in %? Just the number is fine.

Sample answers from the record:
- compound: "Cc1cncn1CCc1nc2c3ccccc3nc(=S)n2[nH]1"
  result-value: -4.09
- compound: "CCCCCC(=O)N(CN1C(=O)CCC1=O)c1ccccc1"
  result-value: 3.52
- compound: "O=C1NC(c2ccccc2)(C(F)(F)F)SC2=NCCCN12 (centres undefined)"
  result-value: 7.68
- compound: "NC(=O)CSCc1ccc(Br)cc1"
  result-value: 0.415
- compound: "C=CCn1c(SCc2cc(=O)n3ccsc3n2)nnc1C1CCCCC1"
  result-value: 17.5

Looking for the measured differential viability (reversal) of Cn1cccc1C(=O)NC(=O)CSc1nnc(C2CC2)n1-c1ccccc1 , can you help?
-7.28

Please give the measured differential viability (reversal) for this compound: CC(C)COC(=O)C(C#N)c1nc2ccccc2nc1N1CCN(Cc2ccccc2)CC1 (centres undefined)
-5.91

Consider the compound O=C(CN1CCCN(S(=O)(=O)c2ccc(F)cc2)CC1)Nc1ccccc1Br and give its measured differential viability (reversal).
-7.18

Could you tell me which differential viability (reversal) is on file for CCOC(=O)c1[nH]c(CSc2nnc(-c3ccncc3)n2CCOC)c(C(=O)OCC)c1C ?
4.23

====

Target: Receptor tyrosine-protein kinase erbB-2 (Homo sapiens) (UniProt P04626)
Sequence (P04626 whole entry, looked up): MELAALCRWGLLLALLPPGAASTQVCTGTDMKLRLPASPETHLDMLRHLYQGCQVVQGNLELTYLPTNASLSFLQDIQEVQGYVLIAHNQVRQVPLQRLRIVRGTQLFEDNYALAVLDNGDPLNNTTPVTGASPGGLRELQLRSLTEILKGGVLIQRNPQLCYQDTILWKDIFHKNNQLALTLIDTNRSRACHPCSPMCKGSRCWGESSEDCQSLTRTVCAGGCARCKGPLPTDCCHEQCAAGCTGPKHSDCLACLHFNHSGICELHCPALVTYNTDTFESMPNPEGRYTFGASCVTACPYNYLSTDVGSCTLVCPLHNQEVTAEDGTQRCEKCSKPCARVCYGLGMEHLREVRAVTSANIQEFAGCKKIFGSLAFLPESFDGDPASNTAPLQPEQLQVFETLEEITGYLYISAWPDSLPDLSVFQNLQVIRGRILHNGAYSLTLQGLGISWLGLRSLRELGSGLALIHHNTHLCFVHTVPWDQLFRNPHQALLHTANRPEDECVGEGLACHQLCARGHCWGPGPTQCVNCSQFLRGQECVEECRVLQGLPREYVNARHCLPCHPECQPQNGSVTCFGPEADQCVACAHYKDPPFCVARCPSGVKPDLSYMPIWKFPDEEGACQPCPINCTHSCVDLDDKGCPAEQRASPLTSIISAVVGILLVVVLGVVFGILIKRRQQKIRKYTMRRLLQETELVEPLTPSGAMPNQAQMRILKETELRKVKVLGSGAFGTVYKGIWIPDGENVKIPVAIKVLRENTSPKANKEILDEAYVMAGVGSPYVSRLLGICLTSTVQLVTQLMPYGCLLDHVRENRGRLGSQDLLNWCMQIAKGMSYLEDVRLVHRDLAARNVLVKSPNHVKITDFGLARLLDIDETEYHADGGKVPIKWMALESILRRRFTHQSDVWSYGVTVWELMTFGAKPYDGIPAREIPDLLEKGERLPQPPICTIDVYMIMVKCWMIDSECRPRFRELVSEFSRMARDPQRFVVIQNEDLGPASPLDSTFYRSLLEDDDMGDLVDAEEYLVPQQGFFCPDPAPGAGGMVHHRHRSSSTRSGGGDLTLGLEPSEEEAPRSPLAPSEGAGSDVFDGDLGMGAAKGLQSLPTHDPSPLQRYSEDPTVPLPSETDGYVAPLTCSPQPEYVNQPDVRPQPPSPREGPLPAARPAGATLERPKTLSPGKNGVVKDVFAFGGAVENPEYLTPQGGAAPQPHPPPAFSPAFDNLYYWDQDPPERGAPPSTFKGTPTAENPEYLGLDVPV
Assay: reducers of endogenous Her2 protein level, primary screen, SKBR3 breast tumor cells, AlphaScreen, ATP viability (AID 461);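 further: lower value means less Her2 protein in the cells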
Conditions: 18-24 h, at 10 µM, hits give low values
recorded-endpoint: Her2 level (%)
// return numeric value only (unit: %, not printed)

As a guide, the following entries are already answered.
- molecule: "N#Cc1c(N)nc(SCc2ccncc2)c(C#N)c1-c1cccs1"
  measurement-target: "Receptor tyrosine-protein kinase erbB-2 (Homo sapiens) (UniProt P04626)"
  recorded-endpoint: "Her2 level"
  reading-unit: "%"
  result-value: 71
- molecule: "Cc1ccc(Cn2nnc3c(=O)[nH]c(C4CCN(S(=O)(=O)c5ccc(F)cc5)CC4)nc32)cc1"
  measurement-target: "Receptor tyrosine-protein kinase erbB-2 (Homo sapiens) (UniProt P04626)"
  recorded-endpoint: "Her2 level"
  reading-unit: "%"
  result-value: 106
- molecule: "O=C(CN(Cc1ccco1)C(=O)c1cc(=O)[nH]c2ccccc12)Nc1ccccc1Br"
  measurement-target: "Receptor tyrosine-protein kinase erbB-2 (Homo sapiens) (UniProt P04626)"
  recorded-endpoint: "Her2 level"
  reading-unit: "%"
  result-value: 79.5
- molecule: "COc1ccc(OCC(=O)N2CCN(C(=O)COc3ccc(Br)cc3)CC2)cc1"
  measurement-target: "Receptor tyrosine-protein kinase erbB-2 (Homo sapiens) (UniProt P04626)"
  recorded-endpoint: "Her2 level"
  reading-unit: "%"
  result-value: 95.5
- molecule: "Cc1nn(-c2nc3ccccc3s2)c(C)c1Oc1ccccc1O"
  measurement-target: "Receptor tyrosine-protein kinase erbB-2 (Homo sapiens) (UniProt P04626)"
  recorded-endpoint: "Her2 level"
  reading-unit: "%"
  result-value: 79.5

Given Cc1cccc(NC(=O)c2cc(NC(=O)c3ccco3)ccc2N2CCCCC2)c1 , state its recorded Her2 level.
80.5

What does the record list as Her2 level for CCOC(=O)C1CCCN(c2c(Nc3ccc(C)c(C)c3)c(=O)c2=O)C1 (stereo not given) ?
99

// lookup Her2 level for O=C1c2ccccc2-c2nc3ncnn3c(-c3ccccc3)c21
105

Item O=C(CN1C(=O)COCC1=O)N1CCOCC1 has what recorded Her2 level?
86.5

For Cc1cc(O)c(-c2cc(C(=O)Nc3ccc(S(=O)(=O)N4CCOCC4)cc3)[nH]n2)cc1C , what is its reported Her2 level?
41

Entry under review: O=c1c2ccccc2nc(SCc2nnc(-c3ccccc3Br)o2)n1-c1ccccc1 . Reported Her2 level?
95.5

Recorded Her2 level of CCN(CC(=O)NCc1cccs1)C(=O)c1cc(S(=O)(=O)N2CCOCC2)ccc1C , please.
118

Field request: Her2 level | item: N#C/C(=C(/O)COC(=O)CCC1CCCCC1)c1nc2ccccc2[nH]1
31

Fill in the blank: the reported Her2 level of O=C(NCC1COc2ccccc2O1)c1ccc(NC(=O)c2ccco2)cc1 (stereo not given) is ____.
83

Value lookup for Her2 level; key = COc1ccccc1C(=O)N1CCCC(c2nc(-c3cc(OC)c(OC)c(OC)c3)no2)C1 (stereo not given)
90

Need Her2 level, item COc1ccc(CC(=O)OCn2nnc3ccccc3c2=O)cc1
86

# input molecule: O=C(c1cc(-c2ccco2)nn1-c1cccc(Cl)c1)N1CCCCC1 ; wanted: its Her2 level
84.5
